Biological target: EGFR Δ746-750 mutant (Homo sapiens (Human), UniProt P00533, DEL746-750)
Sequence (P00533 other isoform, or with tags, fused parts or gaps del 1-668/del 746-750 limits assumed): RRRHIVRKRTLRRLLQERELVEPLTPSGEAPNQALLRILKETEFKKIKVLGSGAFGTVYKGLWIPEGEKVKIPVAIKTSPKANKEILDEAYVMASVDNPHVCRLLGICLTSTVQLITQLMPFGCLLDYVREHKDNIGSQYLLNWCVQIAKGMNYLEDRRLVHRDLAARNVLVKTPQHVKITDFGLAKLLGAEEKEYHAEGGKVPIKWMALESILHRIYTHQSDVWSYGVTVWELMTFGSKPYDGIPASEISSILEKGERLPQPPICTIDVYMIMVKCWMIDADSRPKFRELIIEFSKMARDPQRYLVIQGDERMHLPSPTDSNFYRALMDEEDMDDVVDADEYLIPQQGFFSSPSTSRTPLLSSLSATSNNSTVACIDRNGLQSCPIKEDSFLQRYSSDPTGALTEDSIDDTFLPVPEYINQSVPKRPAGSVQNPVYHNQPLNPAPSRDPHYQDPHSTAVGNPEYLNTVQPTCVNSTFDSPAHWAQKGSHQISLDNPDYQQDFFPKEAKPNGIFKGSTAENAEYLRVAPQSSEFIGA
Experiment: HotSpot radiometric kinase assay, EGFR Δ746-750 mutant
Conditions: 10 μM ATP
Catalogue of compounds with associated pIC50
Here pIC50 is given on a logarithmic scale as minus log10 of the concentration in mol/L.

Some compounds with known pIC50 results, for comparison:
Query :: Supply reported pIC50 belonging to this compound: "Cc1nn(C)c2c1/C=C/c1n[nH]c3ccc(cc13)-c1cnn(C)c1O[C@@H](C)CCO2"
Result :: 6.99

Query :: Supply reported pIC50 belonging to this compound: "C[C@H]1CN(C)Cc2c(c(CN(C)C)nn2CCO)/C=C/c2n[nH]c3ccc(cc23)-c2cnn(C)c2O1"
Result :: 6.01

Query :: Supply reported pIC50 belonging to this compound: Cc1nn([C@H]2CCN(C)C[C@@H]2O)c2c1/C=C/c1n[nH]c3ccc(cc13)-c1cnn(C)c1OCCCO2 (racemic)
Result :: 7.55

Continuing:
Query :: Supply reported pIC50 belonging to this compound: "CCOc1noc2c1/C=C/c1n[nH]c3ccc(cc13)-c1cnn(C)c1O[C@@H](C)CN(C)C2"
Result :: 7.27

Query :: Supply reported pIC50 belonging to this compound: "Cc1nn(C)c2c1/C=C/c1n[nH]c3ccc(cc13)-c1cnn(C)c1OCCN(C)C(=O)CO2"
Result :: 6.53

Query :: Supply reported pIC50 belonging to this compound: "CCOc1nn(CCO)c2c1/C=C/c1n[nH]c3ccc(cc13)-c1c(C)nn(C)c1O[C@@H](C)CN(C(C)C)C2"
Result :: 8.95

Query :: Supply reported pIC50 belonging to this compound: "Cc1nn(C)c2c1/C=C/c1n[nH]c3ccc(cc13)-c1cnn(C)c1O[C@@H](C)CN(C1COC1)C2"
Result :: 8.03

----------
Biological target: EGFR Δ746-750 mutant (Homo sapiens (Human), UniProt P00533, DEL746-750)
Experiment: HotSpot radiometric kinase assay, EGFR Δ746-750 mutant
Conditions: 10 μM ATP
METRIC NAME: IC50 (nM)
Form entry: value (nM) — number only.

Query :: Supply reported IC50 belonging to this molecule: "Cn1ncc2c1OCCN1CC[C@H](C1)Oc1ccccc1/C=C/c1n[nH]c3ccc-2cc13"
Result :: 116

Continuing:
Query :: Supply reported IC50 belonging to this molecule: "CCN1Cc2nn(C)c(C)c2/C=C/c2n[nH]c3ccc(cc23)-c2cnn(C)c2O[C@@H](C)C1"
Result :: 18.6

Query :: Supply reported IC50 belonging to this molecule: "Cn1ncc2c1OCCN1CC[C@@H](Oc3ccc(C(C)(C)O)cc3/C=C/c3n[nH]c4ccc-2cc34)C1=O"
Result :: 48.3

Query :: Supply reported IC50 belonging to this molecule: "CCOc1nn(CCO)c2c1/C=C/c1n[nH]c3cc(F)c(cc13)-c1cnn(C)c1O[C@@H](C)CN(C)C2"
Result :: 2.1

Query :: Supply reported IC50 belonging to this molecule: "CCOC(=O)Cn1nc(OCC)c2c1CN(CC)C[C@H](C)Oc1c(cnn1C)-c1ccc3[nH]nc(c3c1)/C=C/2"
Result :: 8.48
